Tested on: ROCK2
experimentalSetup: concentration: 1 μM, replicates: in singlicate; n = 1;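 also: KINOMEscan kinase panel screen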
experimentalEndpoint: %Inh (%)
Write the number in % without appending the unit.

Given item `Fc1cc(Cl)ccc1Nc1ccnc2cc(-c3ccc(CN4CCOCC4)o3)ccc12` , the value recorded as its %Inh is 46

Given item `CCn1c(-c2nonc2N)nc2c(-c3ccccc3)ncc(OCCCN)c21.O=C(O)C(F)(F)F.O=C(O)C(F)(F)F` , the value recorded as its %Inh is 98.4

Given item `CN(c1ccc(NC(=O)N2CCN(CCCN3CCOCC3)CC2)cc1)c1ccnc(Nc2ccc(CS(C)(=O)=O)cc2)n1.Cl` , the value recorded as its %Inh is 0

Given item `CN(c1ccc(NC(=O)Nc2cccc(Cl)c2)cc1)c1ccnc(N)n1.Cl` , the value recorded as its %Inh is 35

Given item `Cc1ccccc1CC(=O)N1CCc2cc(-c3cn(C)c4ncnc(N)c34)ccc21` , the value recorded as its %Inh is 14

Given item `COc1ccc(NC(=O)c2ccoc2)cc1-c1ccc(C(=O)NCC2CC2)cc1` , the value recorded as its %Inh is 0

Given item `Cc1ccc(O)cc1Nc1ccnc2cc(-c3ccc(CN4CCCCC4)o3)ccc12` , the value recorded as its %Inh is 0

Given item `CSc1ccc(NC2=C(c3ccc(Cl)cc3)C(=O)NC2=O)cc1` , the value recorded as its %Inh is 0

---

System: GRK3
Construct: gene ADRBK2
experimentalSetup: concentration: 1 μM, replicates: in singlicate; n = 1
Measured %Inh determines class: low band: < 1%; middle band: ≥ 1% and < 40%; high band: ≥ 40%

Please report the category associated with `CCNC(=O)/C=C/c1n[nH]c2cc(Sc3ccccc3C(=O)NC)ccc12` , nothing else.
middle band

Please report the category associated with `Cc1cc(-c2ccnc(Nc3cccc(C#N)c3)n2)cc(C)c1O` , nothing else.
low band

Please report the category associated with Cl.Cl.NC(CNC(=O)c1cc(Br)c(-c2ccnc3[nH]ccc23)s1)c1ccccc1 (stereo not drawn) , nothing else.
high band

Please report the category associated with `O=C(Nc1n[nH]c2nc(-c3cccc(O)c3)ccc12)C1CC1` , nothing else.
low band

Please report the category associated with `CN(C)CCOc1ccc(-c2cc(-c3ccc(Cl)c(O)c3)c(-c3ccncc3)[nH]2)cc1.Cl.Cl` , nothing else.
middle band

Please report the category associated with `CNc1nccc(-c2ccc3c(N)n[nH]c3c2)n1` , nothing else.
middle band

Please report the category associated with `Cl.N#CCc1ccc(Nc2nccc(Nc3ccc(Oc4ccccc4)cc3)n2)cc1` , nothing else.
high band

Please report the category associated with `COc1ccc(NC(=O)c2ccoc2)cc1-c1ccc(C(=O)NCC2CC2)cc1` , nothing else.
low band

Please report the category associated with `CCn1c(-c2nonc2N)nc2c(-c3ccccc3)ncc(OCCCN)c21.O=C(O)C(F)(F)F.O=C(O)C(F)(F)F` , nothing else.
high band

Please report the category associated with `CC(=O)Nc1cn2nc(Oc3cccc(NC(=O)c4cccc(C(F)(F)F)c4)c3)ccc2n1` , nothing else.
low band

Please report the category associated with `COc1cccc(CC(=O)N2CCc3cc(-c4cn(C)c5ncnc(N)c45)ccc32)c1` , nothing else.
low band

Please report the category associated with `COc1cccc(NC(=O)NCCNc2ccnc(Nc3ccc(F)cc3)n2)c1` , nothing else.
high band

Please report the category associated with `O=C1NC(=O)C(c2ccccc2Cl)=C1Nc1cccc(Cl)c1` , nothing else.
middle band

Please report the category associated with `Fc1cc(Cl)ccc1Nc1ccnc2cc(-c3ccc(CN4CCOCC4)o3)ccc12` , nothing else.
high band

Please report the category associated with `Cc1cccc(Nc2nc(N[C@H]3CCCC[C@H]3N)ncc2C(N)=O)c1.Cl` , nothing else.
middle band

Please report the category associated with `Cl.O=C(Nc1ccc(Oc2ccc3[nH]c(NC(=O)c4ccco4)nc3c2)cc1)Nc1cc(C(F)(F)F)ccc1F` , nothing else.
middle band

---

Tested on: BMPR1A
experimentalSetup: concentration: 1 μM, replicates: in singlicate; n = 1
experimentalEndpoint: %Inh (%)
Write the number in % without appending the unit.

Given item `Cc1cc(-c2c(-c3ccc(F)cc3)ncn2CCCN2CCOCC2)nc(N)n1` , the value recorded as its %Inh is 20

Given item `CN(c1ccc(NC(=O)N2CCN(CCCN3CCOCC3)CC2)cc1)c1ccnc(Nc2ccc(CS(C)(=O)=O)cc2)n1.Cl` , the value recorded as its %Inh is 6

Given item `CS(=O)(=O)c1cccc(CNc2nc(Nc3ccc4c(c3)CCC(=O)N4)ncc2C(F)(F)F)c1` , the value recorded as its %Inh is 0

Given item `CCOc1nccc(-c2c(-c3ccc(F)cc3)ncn2C2CCNCC2)n1` , the value recorded as its %Inh is 100

---

Test system: BRK
Construct: gene PTK6
experimentalSetup: concentration: 1 μM, replicates: in singlicate; n = 1
Note to self: %Inh under 20% means Fulfilled, ties and anything higher get Not fulfilled.

%Inh under 20%? Item: `COc1cccc(CC(=O)N2CCc3cc(-c4cn(C)c5ncnc(N)c45)ccc32)c1`
Not fulfilled

%Inh under 20%? Item: `CCOc1nccc(-c2c(-c3ccc(F)cc3)ncn2C2CCNCC2)n1`
Fulfilled

%Inh under 20%? Item: `COC(=O)Nc1nc2cc(Oc3ccc(NC(=O)Nc4cccc(SC)c4)cc3)ccc2[nH]1.Cl`
Fulfilled

%Inh under 20%? Item: `CN(C)CCNS(=O)(=O)c1ccc(-c2ccnc3[nH]ccc23)cc1`
Fulfilled

%Inh under 20%? Item: `N#Cc1cnc2cc(-c3cnc(CNCCN4CCOCC4)s3)ccc2c1Nc1ccc(Oc2ccccc2)cc1`
Fulfilled

%Inh under 20%? Item: `Cc1ccc(NC(=O)c2cccc(N3CCCCC3)c2)cc1-c1ccc(C(=O)NCC2CC2)cc1`
Not fulfilled

%Inh under 20%? Item: `Fc1cc(Cl)ccc1Nc1ccnc2cc(-c3ccc(CN4CCSCC4)o3)ccc12`
Not fulfilled

%Inh under 20%? Item: `Cc1ccc(Nc2ccnc(Nc3ccc(C)c(F)c3)n2)cc1O.Cl`
Not fulfilled

%Inh under 20%? Item: `O=C(Nc1n[nH]c2nc(-c3ccccc3)ccc12)C1CC1`
Fulfilled

%Inh under 20%? Item: `COc1ccc(NC(=O)c2ccoc2)cc1-c1ccc(C(=O)NCC2CC2)cc1`
Fulfilled

%Inh under 20%? Item: `Cc1cccc(Nc2nc(NCCN)ncc2C(N)=O)c1`
Fulfilled

%Inh under 20%? Item: `O=C(Nc1n[nH]c2nc(-c3cccc(O)c3)ccc12)C1CC1`
Fulfilled

---

System: TIE1
experimentalSetup: concentration: 1 μM, replicates: in singlicate; n = 1
%Inh below 20% gives no (0); %Inh at or above it gives yes (1).

Quick check: does `Cc1cccc(Nc2nc(NCCN)ncc2C(N)=O)c1` have %Inh greater than or equal to 20%?
no (0)

Quick check: does `Cc1nn2c(=O)cc(N3CCO[C@H](C)C3)nc2n1Cc1cccc(Cl)c1Cl` have %Inh greater than or equal to 20%?
no (0)

Quick check: does `Cc1cccc(Nc2nc(N[C@H]3CCCC[C@H]3N)ncc2C(N)=O)c1.Cl` have %Inh greater than or equal to 20%?
no (0)

Quick check: does `Nc1ncc(-c2cn[nH]c2)c2scc(-c3ccc4c(c3)CCN4C(=O)Cc3ccccc3)c12` have %Inh greater than or equal to 20%?
yes (1)

Quick check: does `COc1ccc(C)c(Nc2ccnc(Nc3ccc(-c4cnc[nH]4)cc3)n2)c1.Cl` have %Inh greater than or equal to 20%?
no (0)

Quick check: does `COc1cccc(-c2nc(-c3ccccc3)[nH]c2-c2ccncc2)c1` have %Inh greater than or equal to 20%?
no (0)

Quick check: does `Fc1cc(Cl)ccc1Nc1ccnc2cc(-c3ccc(CN4CCSCC4)o3)ccc12` have %Inh greater than or equal to 20%?
no (0)

Quick check: does `CCNc1nccc(-c2c(-c3ccc(F)cc3)ncn2C2CCN(C)CC2)n1` have %Inh greater than or equal to 20%?
yes (1)

Quick check: does `CSc1ccc(NC2=C(c3ccc(Cl)cc3)C(=O)NC2=O)cc1` have %Inh greater than or equal to 20%?
yes (1)

---

Tested on: TESK1
experimentalSetup: concentration: 1 μM, replicates: in singlicate; n = 1
experimentalEndpoint: %Inh (%)
Write the number in % without appending the unit.

For the compound `COc1cccc(NC(=O)NCCNc2ccnc(Nc3ccc(F)cc3)n2)c1` , the measured %Inh on TESK1 was 40

For the compound `CN(c1ccc(NC(=O)N2CCN(CCCN3CCOCC3)CC2)cc1)c1ccnc(Nc2ccc(CS(C)(=O)=O)cc2)n1.Cl` , the measured %Inh on TESK1 was 9

For the compound `CCn1cnc2c(NCc3ccccc3)ncnc21` , the measured %Inh on TESK1 was 15

For the compound `Cn1cc(-c2ccc3c(c2)CCN3C(=O)Cc2cc(F)cc(F)c2F)c2c(N)ncnc21` , the measured %Inh on TESK1 was 22

For the compound `COc1cccc(-c2nc(-c3ccccc3)[nH]c2-c2ccncc2)c1` , the measured %Inh on TESK1 was 22

For the compound `COC(=O)Nc1nc2cc(Oc3ccc(NC(=O)Nc4cccc(SC)c4)cc3)ccc2[nH]1.Cl` , the measured %Inh on TESK1 was 3

For the compound `COc1cc(Nc2ccnc3cc(-c4ccncc4)ccc23)cc(OC)c1OC.Cl` , the measured %Inh on TESK1 was 73

For the compound `O=C1NC(=O)C(c2ccccc2Cl)=C1Nc1cccc(Cl)c1` , the measured %Inh on TESK1 was 20

For the compound `Cn1cc(-c2cnc(N)c3c(-c4ccc5c(c4)CCN5C(=O)Cc4ccccc4)csc23)cn1` , the measured %Inh on TESK1 was 53
